Target: human neuropeptide Y5 receptor (Homo sapiens)
Construct: expressed in transfected cells; host or cells: HEK-293 (stably transfected, G-418 selected); membranes
Sequence (Q15761 1-445): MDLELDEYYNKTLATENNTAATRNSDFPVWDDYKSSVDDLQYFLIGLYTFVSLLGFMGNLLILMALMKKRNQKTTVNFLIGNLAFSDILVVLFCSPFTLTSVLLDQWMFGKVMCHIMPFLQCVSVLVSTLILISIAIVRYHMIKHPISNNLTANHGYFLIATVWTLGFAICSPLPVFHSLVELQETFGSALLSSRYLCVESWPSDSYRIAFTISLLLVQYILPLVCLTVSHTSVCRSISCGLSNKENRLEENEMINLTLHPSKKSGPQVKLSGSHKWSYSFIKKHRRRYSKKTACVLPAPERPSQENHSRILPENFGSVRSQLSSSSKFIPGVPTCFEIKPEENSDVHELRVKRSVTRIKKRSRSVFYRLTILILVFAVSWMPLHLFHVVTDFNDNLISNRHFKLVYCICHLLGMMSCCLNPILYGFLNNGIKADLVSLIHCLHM
Assay: NPY5 HTS centrifugation assay: competition with 125I-PYY for binding to membranes of NPY5-transfected HEK293 cells
Conditions: 300 nM compound, 80 pM 125I-PYY, 1 hr room temperature
value-kind: % Inh @ 300 nM (% Inhibition of 125I-PYY Binding) (%)

{"compound": "COc1ccc2c(c1)CCC(NC(=O)CN1CCC(n3c(=O)[nH]c4ccccc43)CC1)C2Cc1cnc[nH]1 (centres unmarked)", "test-system": "human neuropeptide Y5 receptor (Homo sapiens)", "value": 32}
{"compound": "COc1ccc2c(c1)CCC(NC(=O)CN1CCC(n3c(=O)[nH]c4ccccc43)CC1)C2Cc1ccsc1 (centres unmarked)", "test-system": "human neuropeptide Y5 receptor (Homo sapiens)", "value": 66}
{"compound": "NC(CCCCNS(=O)(=O)c1ccccc1)C(=O)NC1CCc2ccccc2C1Cc1cccnc1 (single isomer, unassigned) [Compound 34b]", "test-system": "human neuropeptide Y5 receptor (Homo sapiens)", "value": 61}
{"compound": "O=C(CN1CCC(NC(=O)c2ccccc2)CC1)NCC(Cc1cccnc1)c1ccc(F)cc1 (centres unmarked)", "test-system": "human neuropeptide Y5 receptor (Homo sapiens)", "value": 92}
{"compound": "NC(CCCCNS(=O)(=O)c1ccccc1)CNC1CCc2ccccc2C1Cc1cccnc1 (single isomer, unassigned) [Compound 66]", "test-system": "human neuropeptide Y5 receptor (Homo sapiens)", "value": 98}
{"compound": "O=C(CN1CCC(n2c(=O)[nH]c3ccccc32)CC1)NC1CCc2ccccc2C1Cc1cccnc1 (centres unmarked)", "test-system": "human neuropeptide Y5 receptor (Homo sapiens)", "value": 91}
{"compound": "COc1ccccc1N1CCN(CC(=O)NC2CCc3ccccc3C2Cc2cccnc2)CC1 (centres unmarked)", "test-system": "human neuropeptide Y5 receptor (Homo sapiens)", "value": 81}
{"compound": "CCNC(CCCCNS(=O)(=O)c1ccccc1)CNC1CCc2ccccc2C1Cc1cccnc1 (mixture of isomers)", "test-system": "human neuropeptide Y5 receptor (Homo sapiens)", "value": 109}
{"compound": "O=C(NC(CCCCNS(=O)(=O)c1ccccc1)C(=O)NC1CCc2ccccc2C1Cc1cccnc1)c1ccccc1 (mixture of isomers)", "test-system": "human neuropeptide Y5 receptor (Homo sapiens)", "value": 70}
{"compound": "NC(=O)NC(CCCCNS(=O)(=O)c1ccccc1)C(=O)NC1CCc2ccccc2C1Cc1cccnc1 (mixture of isomers)", "test-system": "human neuropeptide Y5 receptor (Homo sapiens)", "value": 54}
{"compound": "O=C(Nc1ccccc1)NC(CCCCNS(=O)(=O)c1ccccc1)C(=O)NC1CCc2ccccc2C1Cc1cccnc1 (mixture of isomers)", "test-system": "human neuropeptide Y5 receptor (Homo sapiens)", "value": 41}
{"compound": "CC(C)(C)OC(=O)NC1CCN(CC(=O)NC2CCc3cc(F)ccc3C2Cc2cccnc2)C1 (centres unmarked) [Compound 55]", "test-system": "human neuropeptide Y5 receptor (Homo sapiens)", "value": 96}
{"compound": "O=C(CN1CCC(NC(=O)Nc2ccccc2)CC1)NC1CCc2ccccc2C1Cc1cccnc1 (centres unmarked)", "test-system": "human neuropeptide Y5 receptor (Homo sapiens)", "value": 85}
{"compound": "O=C(CN1CCC(NS(=O)(=O)c2ccccc2)CC1)NC1CCc2cc(F)ccc2C1Cc1cccnc1 (centres unmarked)", "test-system": "human neuropeptide Y5 receptor (Homo sapiens)", "value": 97}

###

Listed here: items and their measured inhibition at 3 µM.
Molecular target: human neuropeptide Y5 receptor (Homo sapiens)
Construct: expressed in transfected cells; host or cells: HEK-293 (stably transfected, G-418 selected); membranes
Experiment: NPY5 HTS centrifugation assay: competition with 125I-PYY for binding to membranes of NPY5-transfected HEK293 cells
Conditions: 3 uM compound, 80 pM 125I-PYY, 1 hr room temperature, read-out: % Inh @ 3 uM (% Inhibition of 125I-PYY Binding)
Counter-ions that a name gives are not always drawn.
value-kind: inhibition at 3 µM (%)

{"molecule": "O=C(NCC(Cc1cccnc1)c1ccc(F)cc1)[C@H]1CC[C@H](CNS(=O)(=O)c2ccccc2F)CC1 (relative stereo) [Compound 26, hydrochloride]", "value": 110}
{"molecule": "O=C(CN1CCC(NS(=O)(=O)c2ccccc2F)CC1)NCC(Cc1cccnc1)c1ccc(F)cc1 (stereo not drawn) [Compound 30, bis-trifluoroacetate]", "value": 110}
{"molecule": "COc1ccc2c(c1)CC[C@@H](NC(=O)CN1CCC(n3c(=O)[nH]c4ccccc43)CC1)[C@@H]2Cc1cccnc1 (relative stereo) [Compound 20, bis-hydrochloride]", "value": 96}
{"molecule": "CC(=O)C1(c2ccccc2)CCN(CC(=O)N[C@H]2CCc3ccccc3[C@H]2Cc2cccnc2)CC1 (relative stereo) [Compound 21, bis-hydrochloride]", "value": 98}
{"molecule": "O=C(CN1CCC2(CC1)C(=O)NCN2c1ccccc1)N[C@H]1CCc2ccccc2[C@H]1Cc1cccnc1 (relative stereo) [Compound 22, bis-hydrochloride]", "value": 70}
{"molecule": "O=C(CN1CCC(n2c(=O)[nH]c3ccccc32)CC1)N[C@H]1CCc2cc(O)ccc2[C@H]1Cc1cccnc1 (relative stereo) [Compound 23, bis-hydrochloride]", "value": 100}

###

Molecular target: human neuropeptide Y5 receptor (Homo sapiens, UniProt Q15761)
Construct: expressed in transfected cells; host or cells: HEK-293 (stably transfected, G-418 selected); membranes
Assay: NPY5 HTS centrifugation assay: competition with 125I-PYY for binding to membranes of NPY5-transfected HEK293 cells
Conditions: 3 uM compound, 80 pM 125I-PYY, 1 hr room temperature, read-out: % Inh @ 3 uM (% Inhibition of 125I-PYY Binding)
Counter-ions that a name gives are not always drawn.

{"compound": "COc1ccc2c(c1)CCC(NC(=O)[C@H](CCCCNS(=O)(=O)c1ccccc1F)NC(C)=O)C2Cc1cccnc1 (stereo partly shown) [Compound 10, bis-hydrochloride]", "inhibition at 3 µM": "96%"}
{"compound": "COc1ccc2c(c1)CC[C@H](NC(=O)CN1CCC(n3c(=O)[nH]c4ccccc43)CC1)[C@@H]2Cc1cccnc1 (relative stereo) [Compound 19, Bis-hydrochloride]", "inhibition at 3 µM": "101%"}
{"compound": "O=S(=O)(NC[C@H]1CC[C@H](CNCC(Cc2cccnc2)c2ccc(F)cc2)CC1)c1ccccc1F (stereo partly shown) [Compound 27, bis-hydrochloride]", "inhibition at 3 µM": "110%"}
{"compound": "O=C(CN1CCC(NS(=O)(=O)c2ccccc2)C1)N[C@H]1CCc2cc(F)ccc2[C@H]1Cc1cccnc1 (relative stereo) [Compound 17, bis-trifluoroacetate]", "inhibition at 3 µM": "102%"}

###

Listed here: items and their measured % Inh @ 3 uM (% Inhibition of 125I-PYY Binding).
Biological target: human neuropeptide Y5 receptor (Homo sapiens, UniProt Q15761)
Construct: expressed in transfected cells; host or cells: HEK-293 (stably transfected, G-418 selected); membranes
Experiment: NPY5 HTS centrifugation assay: competition with 125I-PYY for binding to membranes of NPY5-transfected HEK293 cells
Conditions: 3 uM compound, 80 pM 125I-PYY, 1 hr room temperature
value-kind: % Inh @ 3 uM (% Inhibition of 125I-PYY Binding) (%)

{"compound": "CC(=O)NC(CCCCNS(=O)(=O)c1ccccc1)C(=O)NC1CCc2ccccc2C1Cc1cccnc1 (single isomer, unassigned) [Compound 38b]", "value": 101}
{"compound": "O=C(NC(CCCCNS(=O)(=O)c1ccccc1)C(=O)NC1CCc2ccccc2C1Cc1cccnc1)c1ccccc1 (mixture of isomers) [Compound 39]", "value": 95}
{"compound": "CCNC(=O)NC(CCCCNS(=O)(=O)c1ccccc1)C(=O)NC1CCc2ccccc2C1Cc1cccnc1 (mixture of isomers) [Compound 40]", "value": 92}
{"compound": "O=C(CN1CCC(NC(=O)Nc2ccccc2)CC1)NC1CCc2ccccc2C1Cc1cccnc1 (stereo not drawn) [Compound 51]", "value": 102}
{"compound": "NC(CCCCNS(=O)(=O)c1ccccc1)CNC1CCc2ccccc2C1Cc1cccnc1 (mixture of isomers) [Compound 65]", "value": 98}
{"compound": "O=C(Cc1ccccc1)NC1CCN(CC(=O)NC2CCc3cc(F)ccc3C2Cc2cccnc2)CC1 (stereo not drawn) [Compound 47]", "value": 98}
{"compound": "COc1ccc2c(c1)CCC(NC(=O)CN1CCC(n3c(=O)[nH]c4ccccc43)CC1)C2Cc1ccsc1 (stereo not drawn) [Compound 61]", "value": 87}
{"compound": "O=C(CN1CCC(n2c(=O)[nH]c3ccccc32)CC1)NC1CCc2ccccc2C1Cc1cccnc1 (stereo not drawn) [Compound 31]", "value": 100}
{"compound": "CN(C)C(CCCCNS(=O)(=O)c1ccccc1)C(=O)NC1CCc2ccccc2C1Cc1cccnc1 (single isomer, unassigned) [Compound 43b]", "value": 86}
{"compound": "NC(CCCCNS(=O)(=O)c1ccccc1)C(=O)NC1CCc2ccccc2C1Cc1cccnc1 (single isomer, unassigned) [Compound 34b]", "value": 99}
{"compound": "CC(C)(C)OC(=O)NC1CCN(CC(=O)NC2CCc3cc(F)ccc3C2Cc2cccnc2)C1 (mixture of isomers) [Compound 57]", "value": 93}
{"compound": "O=C(CN1CCC(NC(=O)c2ccccc2)CC1)NCC(Cc1cccnc1)c1ccc(F)cc1 (stereo not drawn) [Compound 92]", "value": 104}
{"compound": "CC(C)(C)OC(=O)NC1CCN(CC(=O)NC2CCc3cc(F)ccc3C2Cc2cccnc2)CC1 (stereo not drawn) [Compound 54]", "value": 100}
{"compound": "NC(CCCCNS(=O)(=O)c1ccccc1)CNC1CCc2ccccc2C1Cc1cccnc1 (single isomer, unassigned) [Compound 66]", "value": 102}
{"compound": "CC(=O)NC(CCCCNS(=O)(=O)c1ccccc1)C(=O)NC1CCc2ccccc2C1Cc1cccnc1 (single isomer, unassigned) [Compound 38a]", "value": 104}
{"compound": "O=C(CN1CCC(NC(=O)c2ccccc2)C1)NC1CCc2cc(F)ccc2C1Cc1cccnc1 (mixture of isomers) [Compound 60]", "value": 109}
{"compound": "O=C(CN1CCC(NC(=O)c2ccccc2)CC1)NC1CCc2cc(F)ccc2C1Cc1cccnc1 (stereo not drawn) [Compound 44]", "value": 98}
{"compound": "O=C(Nc1ccccc1)NC(CCCCNS(=O)(=O)c1ccccc1)C(=O)NC1CCc2ccccc2C1Cc1cccnc1 (mixture of isomers) [Compound 72]", "value": 73}
{"compound": "NC(=O)NC(CCCCNS(=O)(=O)c1ccccc1)C(=O)NC1CCc2ccccc2C1Cc1cccnc1 (mixture of isomers) [Compound 41]", "value": 94}
{"compound": "COc1ccccc1N1CCN(CC(=O)NC2CCc3ccccc3C2Cc2cccnc2)CC1 (stereo not drawn) [Compound 93]", "value": 97}
{"compound": "CC(C)(C)NC(=O)NC1CCN(CC(=O)NC2CCc3cc(F)ccc3C2Cc2cccnc2)CC1 (stereo not drawn) [Compound 53]", "value": 92}
{"compound": "NC(CCCCNS(=O)(=O)c1ccccc1)C(=O)NC1CCc2ccccc2C1Cc1cccnc1 (mixture of isomers) [Compound 33]", "value": 96}
{"compound": "O=C(CN1CCC(NS(=O)(=O)c2ccccc2)C1)NC1CCc2cc(F)ccc2C1Cc1cccnc1 (mixture of isomers) [Compound 59]", "value": 93}
{"compound": "COc1ccc2c(c1)CCC(NC(=O)CN1CCC(n3c(=O)[nH]c4ccccc43)CC1)C2Cc1cnc[nH]1 (stereo not drawn) [Compound 73]", "value": 63}
{"compound": "O=C(CN1CCC(NS(=O)(=O)c2ccccc2)CC1)NC1CCc2cc(F)ccc2C1Cc1cccnc1 (stereo not drawn) [Compound 48]", "value": 103}
{"compound": "O=C(CN1CCC(NC(=O)Nc2ccccc2)CC1)NC1CCc2cc(F)ccc2C1Cc1cccnc1 (stereo not drawn) [Compound 45]", "value": 95}
{"compound": "CN(C)C(CCCCNS(=O)(=O)c1ccccc1)C(=O)NC1CCc2ccccc2C1Cc1cccnc1 (single isomer, unassigned) [Compound 43a]", "value": 93}
